hCD71:HSA for assorted binders
Target: T1, recombinant biotinylated CD71 extracellular domain (Sino Biologics) with an N-terminal 6His tag (human, UniProt P02786 89-760, biotinylated (sites not given))
T1 construct: extracellular domain; also called hCD71; huCD71
T1 sequence (P02786 other isoform, or with tags, fused parts or gaps): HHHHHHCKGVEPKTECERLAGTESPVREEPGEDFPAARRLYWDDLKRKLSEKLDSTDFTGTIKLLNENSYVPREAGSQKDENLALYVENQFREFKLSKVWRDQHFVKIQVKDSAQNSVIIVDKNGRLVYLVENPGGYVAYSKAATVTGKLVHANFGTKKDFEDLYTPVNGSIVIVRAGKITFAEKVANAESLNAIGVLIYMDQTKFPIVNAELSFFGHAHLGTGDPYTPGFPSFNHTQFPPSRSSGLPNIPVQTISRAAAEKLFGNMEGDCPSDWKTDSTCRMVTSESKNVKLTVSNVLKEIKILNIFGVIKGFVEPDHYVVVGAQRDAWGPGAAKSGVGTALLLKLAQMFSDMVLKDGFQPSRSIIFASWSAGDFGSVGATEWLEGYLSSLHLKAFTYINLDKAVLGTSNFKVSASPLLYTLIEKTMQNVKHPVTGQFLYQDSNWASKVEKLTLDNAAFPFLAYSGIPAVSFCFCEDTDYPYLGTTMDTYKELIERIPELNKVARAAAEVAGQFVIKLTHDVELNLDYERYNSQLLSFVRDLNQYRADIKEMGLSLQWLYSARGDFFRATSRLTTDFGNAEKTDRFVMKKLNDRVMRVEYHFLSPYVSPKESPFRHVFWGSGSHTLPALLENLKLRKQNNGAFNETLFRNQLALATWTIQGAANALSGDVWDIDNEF
Assay: screening ELISA, ratio
MEASURED PROPERTY: hCD71:HSA

- SEQ ID NO 307 (designed binder, FN3 domain) MLPAPKNLVVSRVTEDSARLSWTAPDAAFDSFPITYSEPAHYGEAIVLTVPGSERSYDLTGLKPGTEYHVGIMGVKGGVFSSPLSAIFTT: 503
- SEQ ID NO 267 (designed binder, FN3 domain) MLPAPKNLVVSRVTEDSARLSWTAPDAAFDSFPIVYSEIHVIGEAIVLTVPGSERSYDLTGLKPGTEYDVWIEGVKGGHLSEPLSAIFTT: 166
- SEQ ID NO 210 (designed binder, FN3 domain) MLPAPKNLVVSRVTEDSARLSWTAPDAAFDSFSIVYGERFVNGEAIVLTVPGSERSYDLTGLKPGTEYHVYIDGVKGGDLSWPLSAIFTT: 514
